FYI, the data here is from patent US9157105B2.

# Test system: His6PtmE (Cj1329, nucleotidyltransferase)
# procedure.details: His6PtmE substrate specificity (sugar-1-P acceptors and NTP donors)
# Format: biochemical, Campylobacter jejuni 11168
# conditions.used: 10 mM sugar-1-P, 0.2 mM NTP, 30 min at 37° C.
measurement.kind: PtmE activity with sugar-1-P acceptor

>>> df
                                   compound                 result
0  CC(=O)N[C@H]1[C@@H](OP(=O)(O)O)O[C@H](CO)[C@@H](O)[C@@H]1O [GlcNAc-1-P, N-acetyl-α-D-glucosamine-1-phosphate]  activity was observed
1  O=P(O)(O)O[C@H]1O[C@H](CO)[C@@H](O)[C@H](O)[C@H]1O [Glc-1-P, glucose-1-phosphate]  activity was observed
2  N[C@H]1[C@@H](OP(=O)(O)O)O[C@H](CO)[C@@H](O)[C@@H]1O [III, α-D-glucosamine-1-phosphate]  activity was observed
